- tested_system: Cytochrome P450 2C19 (Homo sapiens)
- assay_protocol: qHTS Assay for Inhibitors and Substrates of Cytochrome P450 2C19 (AID 899); further: nearly all actives have a fitted effect of over 60% in size
- assay_setup: recombinant CYP2C19, luciferin-H EGE luminescence; series mostly up to 57.1 µM
- Description: NIH Molecular Libraries Screening Centers Network [MLSCN] NIH Chemical Genomics Center [NCGC] The P450 gene superfamily is involved in the metabolism and clearance of xenobiotics. […] The luciferin is then measured by luminescence after the addition of a luciferase detection reagent. […] Inhibitors and some substrates limit the production of luciferin, and decrease measured luminescence. […]
Inconclusive results are not listed. Calls of active or inactive are those of the source. The call rests on the fitted dose curve; in most records, active means well fitted inhibition curve with a large enough effect; inconclusive means small, poorly fitted or top-dose-only effect; inactive means no such curve, though single readings can be large or run the other way.
The categories you may choose from are t = active, f = inactive

O=c1c(O)c(-c2ccc(O)c(O)c2)oc2c(OC[C@H]3O[C@@H](O)[C@@H](O)[C@H](O)[C@@H]3O)c(O)cc(O)c12	f
COc1cc2nc(N3CCN(C(=O)[C@H]4COc5ccccc5O4)CC3)nc(N)c2cc1OC	f
CCCC1(C(=O)OC)C=C2C(=C(c3ccccc3)C(=O)C2C)CN1 (centres undefined)	t

-- ask Which outcome was assigned to COC(=O)[C@@]1(Cc2ccc(OC)cc2)[C@H]2c3cc(C(=O)N(C)C)[nH]c3C[C@H]2CN1C(=O)c1ccccc1 in this test?
-- reply t

###

- assay_protocol: NFAT Signaling Pathway (AID 444);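 further: carbachol stimulus at about its EC50 of 1 µM final; on the % scale 0 is the no-effect control and ±100 the full control effect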
- assay_setup: Jurkat NFAT-bla M1, carbachol, beta-lactamase ratio, 5 h; at 17.2 µM (top of the series) unless noted
Records with an inconclusive call do not appear. Calls of active or inactive are those of the source. Calls follow the shape of the dose curve; as a rule, active = well fitted curve in either direction with a large enough effect (not every such curve was filed as active); inconclusive = small, poorly fitted or top-dose-only effect, or another doubt; inactive = flat fitted curve, though single readings scatter.
metric_name: activity change, negative = inhibition

Worked cases, answers included:
CC(=O)c1c(C(C)=O)c(C)n(NC(=O)c2ccncc2)c1C	3.09% (inactive)
O=C(CCCN1C(=O)c2ccccc2C1=O)N1CCC(c2ccccc2)C1 (stereo not drawn)	15.7% (inactive)
CN1C(=O)C2(c3ccccc31)C1CCCC=C1C(C#N)=C(N)C2(C#N)C#N (stereo not drawn)	-15.5% (inactive)

-- ask Which value of activity change, negative = inhibition has been reported for CCOC(=O)C(C)Oc1ccc2c(C)cc(=O)oc2c1C(C)=O (stereo not drawn) in the records?
-- reply 2.57% (inactive)

-- ask Repeat with CCOc1ccc(C2=Nn3c(nnc3-c3cccnc3)SC2)cc1
-- reply -2.85% (inactive)

-- ask Repeat with O=C1CC(c2ccccc2)n2nc(N3C(=O)c4ccccc4C3=O)nc2N1 (stereo not drawn)
-- reply -10.6% (inactive)

-- ask Repeat with Cc1ccc(OCC(O)CNS(=O)(=O)c2ccccc2C(=O)O)cc1 (stereo not drawn)
-- reply 6.08% (inactive)

-- ask Repeat with CCN(CC)CCCN1C(=O)C(=O)/C(=C(/O)c2ccc3c(c2)CC(C)O3)C1c1ccncc1 (stereo not drawn)
-- reply 13.1% (inactive)

-- ask Repeat with O=C(O)CC(C(=O)OCCOc1ccccc1)N1CCOCC1 (stereo not drawn)
-- reply -6.82% (inactive)

-- ask Repeat with Cn1c(=O)c2c(nc(NCc3ccc4c(c3)OCO4)n2Cc2ccc(F)cc2)n(C)c1=O
-- reply -10.4% (inactive)

-- ask Repeat with Nc1cc(S(N)(=O)=O)ccc1SSc1ccc(S(N)(=O)=O)cc1N
-- reply -0.508% [at 7.69 µM] (inactive)

-- ask Repeat with CCN(CC)CCN1C(=O)C(O)=C(C(=O)c2cccs2)C1c1ccccn1 (stereo not drawn)
-- reply 9.2% (inactive)

-- ask Repeat with CCCCCC(=O)N1CC2(CC)CN(C(=O)CCCCC)CC(CC)(C1)C2=O
-- reply -17.5% (inactive)

-- ask Repeat with CC1(C)Cc2nc(N)c(C(=O)NCCO)cc2CO1
-- reply 3.25% (inactive)
